The measured values listed here are drawn from paper PMC9482650.

- Tgt: MAGI3_2, Q5TCQ9
- Sequence (Q5TCQ9 398-503): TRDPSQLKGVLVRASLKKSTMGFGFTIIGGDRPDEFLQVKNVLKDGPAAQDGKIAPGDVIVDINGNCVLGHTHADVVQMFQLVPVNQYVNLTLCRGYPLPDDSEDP
- Assay Info: holdup assay
- Set-up: key: below the threshold = too weak to quantify, mostly under pKd 3.1 to 4
- Measurement Parameters: plain residues with an end cap or a label only (N-terminal biotin on a linker: ttds)
Measured Parameter: pKd

>>> meas_value("NDPAWDETNL [ARHGEF7, Q14155;Q14155-1]")
"below the threshold"
>>> meas_value("FHPLGADSQV [SLC2A1, P11166]")
"below the threshold"
>>> meas_value("KKYVDAETSL [SLC4A7, Q9Y6M7]")
"below the threshold"
